- Experimental system: T1, soluble human FcRn (shFcRn) (human, UniProt P55899 24-297; P61769 21-119, biotinylated with Sulfo-NHS-LC-Biotin in the ELISA; amine-coupled to a CM5 chip in SPR)
- T1 construct: also called biotinylated shFcRn
- Method description: competition ELISA vs human IgG
Quantity measured: IC50 (nM)

a: QRFXTGHFXGXYPCNGP (Pen4; D-Phe9; NMeLeu11; disulfide; C-terminal amide) [Peptide No. 153]
b: RFXTGHFGGXYPCNGP (Pen3; NMeLeu10; disulfide; C-terminal amide) [Peptide No. 146]
stdin: Could you tell me which of a and b has the lower IC50 reading? Give the chosen item's label as your response.
stdout: a
(a: 1300 nM, b: 2100 nM)
